# assayText: label from the status in PepcDB records

>  <polymerSequence>
MRLFSIPPPTLLAGFLAVLIGYASSAAIIWQAAIVAGATTAQISGWMTALGLAMGVSTLTLTLWYRVPVLTAWSTPGAALLVTGLQGLTLNEAIGVFIVTNALIVLCGITGLFARLMRIIPHSLAAAMLAGILLRFGLQAFASLDGQFTLCGSMLLVWLATKAVAPRYAVIAAMIIGIVIVIAQGDVVTTDVVFKPVLPTYITPDFSFAHSLSVALPLFLVTMASQNAPGIAAMKAAGYSAPVSPLIVFTGLLALVFSPFGVYSVGIAAITAAICQSPEAHPDKDQRWLAAAVAGIFYLLAGLFGSAITGMMAALPVSWIQMLAGLALLSTIGGSLYQALHNERERDAAVVAFLVTASGLTLVGIGSAFWGLIAGGVCYVVLNLIADRNRY

>  <protein production>
failed

$$$$
>  <polymerSequence>
MQDIHFRRHYVRHLPKEVSQNDIIKALASPLINDGMVVSDFADHVITREQNFPTGLPVEPVGVAIPHTDHKYVRQNAISVGILAEPVNFEDMGGEPDPVPVRVVFMLALGESNKQLNVLGWIMDVIQDEDFMQQLLVMNDDEIYQSIYTRISERGEV

>  <protein production>
not failed

$$$$
>  <polymerSequence>
MLTFIVVNYNGEKYLKECLNSIINQTYRKLRVLVIDNGSTDGSRDILRNFEDYYSRFEVIRNEENLGFAKAANQGIEMANTKFVALVNNDAFLERNWAEEMLKAADDLRAGIFASKILFEDGRINSAGHAIHRGLAVMERGFLEKDEGQFDEPCYVAGACAAAAMYRRSLFEDVGLFDEDYFMYNEDVDLSLRALIRGWKILYVPTAIAYHLHSASTGFLSDFSVYYNSRNWVWSVVKNVPRDLLLREFPYFILRNFSSMLFFCLRGNFAILKSKIDAIRELRKFLEKRREVQQKVRFKAVEDYIEGLGFGKALKVARLAGVLR

>  <protein production>
failed

$$$$
>  <polymerSequence>
MTTLEAFAKARSEGRAALIPYLTAGFPSREGFLQAVEEVLPYADLLEIGLPYSDPLGDGPVIQRASELALRKGMSVQGALELVREVRALTEKPLFLMTYLNPVLAWGPERFFGLFKQAGATGVILPDLPPDEDPGLVRLAQEIGLETVFLLAPTSTDARIATVVRHATGFVYAVSVTGVTGMRERLPEEVKDLVRRIKARTALPVAVGFGVSGKATAAQAAVADGVVVGSALVRALEEGRSLAPLLQEIRQGLQRLEANPGLKESSKKPLP

>  <protein production>
not failed

$$$$
>  <polymerSequence>
MSEFRLTQISDTHLGRRFPGLIANFHRVCEHIDADRPDLVINTGDVSFDGPTSRDDVVFAKGLHDALPVTCRYLPGNHDIGDNPTAIGPAPKPPVSEAYRQQFRDIIGEDHWSFEAAGWCFIGLNTLVMNSGLAFEAAQFDWLTQEIARTNGRPVALFLHKPVFLNLPDDPETPETSIRYVPQPARARLIEMFARVDLRLIASGHVHQRRDFTFRHTRHVWAPSVGFKINDQRQDRIAIKETGLVEYRFRGDSLEVRHLRAAGQIDIDIEEVLLQMGGEH

>  <protein production>
failed

$$$$
>  <polymerSequence>
MPKLDRYLLSDFTQSFLATLIVLLVVSVGGVLVDILGNIADGRIPARLLLSQVGLQFVAYLPIILPLALMLGLLLALARLYRDSEMAVITAIGVGPTRMLRPLLMLVVPVVVVIGLCSLWLGPWASRTAEAMLEDANRSVLMAGLESGQFTPLSDGGVVYMQTISADGKGLGKIFLQRQQNDRIDVVTADRGALFFEGKTDRYLHLDDGYRTEGPAGGATLDYRLMKFASSDIALPDRTRLHDANDPEVMWTTQLLSDERPAARAQLHERLAPPLLALAFAMLTLPLSRSAPRQQRYGRIMLAFLAYMVGTNLMIVGTQWIANGKAPAALGLWWLTLPLLAVAVWAYARDGRVRRPRARA

>  <protein production>
failed

$$$$
>  <polymerSequence>
MKTWFKYIKLLLLSVCTFLLVTGCNSNVSKLPSNQTTSNITTNCRVINHEAGKTQICGQPKKVVALSPPVLDMMLALGVQPAGYAEVDLLNSKVFDRPKEQIPYLGDRITSQPMNVGDRGNPSLESLLQLKPDLILGEASYNETEYQILNKIAPTILISHRDGITPAWQQTISIIAQALGREDKVPTVIAEYEQKLSQAKTAIAPIAQHQELLLLAFRGITLTSFTFGAETFAGGLLQDLGFKLVSPESTEYEVALEVLPKFKSDLIVIMPSGNNNIENAKRQWSQNPILQSISAHNTNRIYFIDYQLASRIRGPIAAELFVNQVRQLLS

>  <protein production>
failed

$$$$
>  <polymerSequence>
MFIYFPKNYVWSMSTVIAATHGGSIGEIDEFCRPLLDKSSDDADVGTVEFLHAWIGGADKLIKMAEQDLEKNRELSAAKKYYRAALYYLIAERMQEQGHPERLKVYKRYLELAELYRKYKKDDVKRVEIPYQNSHLSAIYAKGKTTDEKQAIVVMMNGLDSTKELMSYCPLADELVERGISVLMVDQPGTGEAIRLQDLRAVYNSEIWASPIVDWLCEQPEIDQHRIAAFGISLGGYYCPRAVAFEPRFCCAAIWGANHDWRAVQHARLKREGENPVPHYWKHVEWVFGAQDQKEFFEIAENMHLNGVLDRIKVPFLVTHGEKDRQIPLKYAYETYDQLINSPDKELLVIDDEMGGVEHSSIDNPLNAGAYIADWLAEHLNGKTSK

>  <protein production>
failed

$$$$
>  <polymerSequence>
MAKAMELWVGEMKKMSEKINTRNPLMQRKNSTSVVSKQQQGSEEERGLINQKIREKNEAVTMSELTVCLLMDRFVPW

>  <protein production>
failed

$$$$
>  <polymerSequence>
MATEPEAAEPVVPSLVDRYFTRWYKPDVKGKFCEDHCILQHSNRICVITLAESHPVLQSGKTIKSISYQISTNCSRLQNKVSGKFKRGAQFLTELAPLCKIYCSDGEEYTVSSCVRGRLMEVNENILHKPSILQEKPSTEGYIAVVLPKFEESKSITEGLLTQKQYEEVMVKRINATTATS

>  <protein production>
failed

$$$$
